- Tested on: Cell membrane
- experiment-description: Induction of cell membrane disruption in Staphylococcus aureus ATCC 25923 assessed as increase in PI uptake measured after 30 to 120 mins by propidium iodide staining based FACS flow cytometry analysis (reference value: 15%)
- Assay type: subcellular
- reported-conditions: time 30-120 min
Bridge positions count the residues as written; N and C are the ends. Square brackets hold non-standard residues; d marks the D form. Peptide text beside a SMILES is read from it. * marks the point of attachment. X1 = CC[C@H](C)CCCCC(=O)*; Dab = NCC[C@H](N)C(=O)O
measured-metric: Activity (%)
# value in %; strip the unit string

# example entries with known answers
- CC(C)C[C@H](NC(=O)[C@H](CC(C)C)NC(=O)[C@H](CCC(=O)O)NC(=O)[C@H](CCCCN)NC(=O)[C@H](CC(C)C)NC(=O)[C@H](CC(C)C)NC(=O)[C@H](CCCCN)NC(=O)[C@H](C)NC(=O)[C@@H](NC(=O)[C@H](CCCCN)NC(=O)[C@@H]1CCCN1C(=O)[C@H](CC(C)C)NC(=O)[C@@H](N)Cc1ccccc1)C(C)C)C(N)=O (H-FLPKVAKLLKELL-NH2): 49.3
- CC[C@H](C)CCCCC(=O)N[C@@H](CCN)C(=O)N[C@H](C(=O)N[C@@H](CCN)C(=O)N[C@H]1CCNC(=O)[C@H]([C@@H](C)O)NC(=O)[C@H](CCN)NC(=O)[C@H](CCN)NC(=O)[C@H](CC(C)C)NC(=O)[C@@H](Cc2ccccc2)NC(=O)[C@H](CCN)NC1=O)[C@@H](C)O (X1-[Dab]T[Dab][Dab][Dab][dF]L[Dab][Dab]T; lactam 4-C): 45.8

INPUT: Quick one: Activity for CO[C@H]1/C=C/O[C@@]2(C)Oc3c(C)c(O)c4c(O)c(c(/C=N/N5CCN(C)CC5)c(O)c4c3C2=O)NC(=O)/C(C)=C\C=C\[C@H](C)[C@H](O)[C@@H](C)[C@@H](O)[C@@H](C)[C@H](OC(C)=O)[C@@H]1C ?
OUTPUT: 3.45

INPUT: Repeat with CC[C@H](C)[C@H](NC(=O)[C@@H]1CCCN1C(=O)[C@H](CC(C)C)NC(=O)[C@@H](N)Cc1ccccc1)C(=O)N[C@H](C(=O)N[C@@H](C)C(=O)N[C@@H](CCCCN)C(=O)N[C@@H](CC(C)C)C(=O)N[C@@H](CC(C)C)C(=O)N[C@@H](CO)C(=O)NCC(=O)N[C@@H](CC(C)C)C(=O)N[C@@H](CC(C)C)C(N)=O)C(C)C (H-FLPIVAKLLSGLL-NH2)
OUTPUT: 24.1

----------
- Tested on: Cell membrane
- experiment-description: Induction of cell membrane disruption in Escherichia coli ATCC 25922 assessed as increase in PI uptake measured after 30 to 120 mins by propidium iodide staining based FACS flow cytometry analysis (reference value: 6.0 %)
- Format: subcellular
- reported-conditions: time 30-120 min
Peptide text beside a SMILES is read from it.
measured-metric: Activity (%)
Numbers only here, please. The scale is %.

INPUT: Please state recorded Activity (tested on Cell membrane) of CC(C)C[C@H](NC(=O)[C@H](CC(C)C)NC(=O)[C@H](CCC(=O)O)NC(=O)[C@H](CCCCN)NC(=O)[C@H](CC(C)C)NC(=O)[C@H](CC(C)C)NC(=O)[C@H](CCCCN)NC(=O)[C@H](C)NC(=O)[C@@H](NC(=O)[C@H](CCCCN)NC(=O)[C@@H]1CCCN1C(=O)[C@H](CC(C)C)NC(=O)[C@@H](N)Cc1ccccc1)C(C)C)C(N)=O (H-FLPKVAKLLKELL-NH2)
OUTPUT: 83.1

----------
Known MIC of a selection of compounds
- Test system: Escherichia coli
- experiment-description: Antibacterial activity against Escherichia coli ATCC 25922 assessed as growth inhibition measured after 18 to 24 hrs by CLSI based broth microdilution method
- Assay type: functional
- reported-conditions: time 18-24 hrs
Square brackets hold non-standard residues; d marks the D form. Peptide text beside a SMILES is read from it. ξ: configuration not given here. Ile(3ξ) = CCC(C)[C@H](N)C(=O)O

Example entries begin here.
• CC[C@H](C)[C@H](NC(=O)[C@@H]1CCCN1C(=O)[C@H](CC(C)C)NC(=O)[C@@H](N)CCC(=O)O)C(=O)N[C@H](C(=O)N[C@@H](C)C(=O)N[C@@H](CCCCN)C(=O)N[C@@H](CC(C)C)C(=O)N[C@@H](CC(C)C)C(=O)N[C@@H](CO)C(=O)NCC(=O)N[C@@H](CC(C)C)C(=O)N[C@@H](CC(C)C)C(N)=O)C(C)C (H-ELPIVAKLLSGLL-NH2) = > 128 µM
• CCC(C)[C@H](NC(=O)[C@@H]1CCCN1C(=O)[C@H](CC(C)C)NC(=O)[C@@H](N)Cc1ccccc1)C(=O)N[C@H](C(=O)N[C@@H](C)C(=O)N[C@@H](CCCCN)C(=O)N[C@@H](CC(C)C)C(=O)N[C@@H](CC(C)C)C(=O)N[C@@H](CO)C(=O)N[C@@H](CCCCN)C(=O)N[C@@H](CC(C)C)C(=O)N[C@@H](CC(C)C)C(N)=O)C(C)C (stereo partly drawn) (H-FLP[Ile(3ξ)]VAKLLSKLL-NH2) = > 128 µM

--- query ---
INPUT: Please tell me: MIC of CC[C@H](C)[C@H](NC(=O)[C@@H]1CCCN1C(=O)[C@H](CC(C)C)NC(=O)[C@@H](N)Cc1ccccc1)C(=O)N[C@H](C(=O)N[C@@H](C)C(=O)N[C@@H](CCCCN)C(=O)N[C@@H](CC(C)C)C(=O)N[C@@H](CC(C)C)C(=O)N[C@@H](CO)C(=O)NCC(=O)N[C@@H](CCC(=O)O)C(=O)N[C@@H](CC(C)C)C(N)=O)C(C)C (H-FLPIVAKLLSGEL-NH2) , system Escherichia coli?
OUTPUT: > 128 µM

----------
- Test system: Erythrocyte
- experiment-description: Hemolytic activity against mouse RBC measured after 1 hrs
- Format: toxicity, cell-based
Peptide text beside a SMILES is read from it.
measured-metric: MHC10

* CC(C)C[C@H](NC(=O)[C@H](CC(C)C)NC(=O)[C@H](CCCCN)NC(=O)[C@H](CCC(=O)O)NC(=O)[C@H](CC(C)C)NC(=O)[C@H](CC(C)C)NC(=O)[C@H](CCCCN)NC(=O)[C@H](C)NC(=O)[C@@H](NC(=O)[C@H](CCCCN)NC(=O)[C@@H]1CCCN1C(=O)[C@H](CC(C)C)NC(=O)[C@@H](N)Cc1ccccc1)C(C)C)C(N)=O (H-FLPKVAKLLEKLL-NH2) | > 256 µM
* CC[C@H](C)[C@H](NC(=O)[C@@H]1CCCN1C(=O)[C@H](CC(C)C)NC(=O)[C@@H](N)Cc1ccccc1)C(=O)N[C@H](C(=O)N[C@@H](CCC(=O)O)C(=O)N[C@@H](CCCCN)C(=O)N[C@@H](CC(C)C)C(=O)N[C@@H](CC(C)C)C(=O)N[C@@H](CO)C(=O)NCC(=O)N[C@@H](CC(C)C)C(=O)N[C@@H](CC(C)C)C(N)=O)C(C)C (H-FLPIVEKLLSGLL-NH2) | > 256 µM

INPUT: Consider the compound CC[C@H](C)[C@H](NC(=O)[C@@H]1CCCN1C(=O)[C@H](CC(C)C)NC(=O)[C@@H](N)Cc1ccccc1)C(=O)N[C@H](C(=O)N[C@@H](C)C(=O)N[C@@H](CCCCN)C(=O)N[C@@H](CC(C)C)C(=O)N[C@@H](CC(C)C)C(=O)N[C@@H](CO)C(=O)NCC(=O)N[C@@H](CC(C)C)C(=O)N[C@@H](CC(C)C)C(N)=O)C(C)C (H-FLPIVAKLLSGLL-NH2) and give its measured MHC10.
OUTPUT: 12.53 µM

----------
- experiment-description: Cytotoxicity against human Glomerular mesenchymal cell assessed as reduction in cell viability at 0 to 128 uM incubated for 1 hr by Resazurin cell viability kit
- Assay type: toxicity, cell-based
- reported-conditions: glomerular mesenchymal cells, dose 0-128 µM
Peptide text beside a SMILES is read from it.
measured-metric: CC50 at 1 h

• CC(C)C[C@H](NC(=O)[C@H](CC(C)C)NC(=O)[C@H](CCCCN)NC(=O)[C@H](CCC(=O)O)NC(=O)[C@H](CC(C)C)NC(=O)[C@H](CC(C)C)NC(=O)[C@H](CCCCN)NC(=O)[C@H](C)NC(=O)[C@@H](NC(=O)[C@H](CCCCN)NC(=O)[C@@H]1CCCN1C(=O)[C@H](CC(C)C)NC(=O)[C@@H](N)Cc1ccccc1)C(C)C)C(N)=O (H-FLPKVAKLLEKLL-NH2) = > 128 µM

INPUT: // lookup CC50 at 1 h for CC(C)C[C@H](NC(=O)[C@H](CC(C)C)NC(=O)[C@H](CCC(=O)O)NC(=O)[C@H](CCCCN)NC(=O)[C@H](CC(C)C)NC(=O)[C@H](CC(C)C)NC(=O)[C@H](CCCCN)NC(=O)[C@H](C)NC(=O)[C@@H](NC(=O)[C@H](CCCCN)NC(=O)[C@@H]1CCCN1C(=O)[C@H](CC(C)C)NC(=O)[C@@H](N)Cc1ccccc1)C(C)C)C(N)=O (H-FLPKVAKLLKELL-NH2)
OUTPUT: > 128 µM

INPUT: What about CC[C@H](C)[C@H](NC(=O)[C@@H]1CCCN1C(=O)[C@H](CC(C)C)NC(=O)[C@@H](N)Cc1ccccc1)C(=O)N[C@H](C(=O)N[C@@H](C)C(=O)N[C@@H](CCCCN)C(=O)N[C@@H](CC(C)C)C(=O)N[C@@H](CC(C)C)C(=O)N[C@@H](CO)C(=O)NCC(=O)N[C@@H](CC(C)C)C(=O)N[C@@H](CC(C)C)C(N)=O)C(C)C (H-FLPIVAKLLSGLL-NH2) ?
OUTPUT: 35.9 µM

Taken from ChEMBL document CHEMBL5108051.
